Items are presented alongside their recorded MIC.
System: Streptococcus pyogenes
ASSAY METHOD TEXT: Antibacterial activity against erythromycin-susceptible Streptococcus pyogenes 1 after 24 hrs by broth dilution assay
Assay type: functional
CONDITION LABEL: Streptococcus pyogenes, 1, 24 h
MEASUREMENT KIND: MIC (µg/mL)

INSERT INTO assay_data (smiles_notation, unit_abbreviation, measured_result) VALUES
  ('CC[C@H]1OC(=O)[C@H](C)[C@@H](O[C@H]2C[C@@](C)(OC)[C@@H](O)[C@H](C)O2)[C@H](C)[C@@H](O[C@@H]2O[C@H](C)C[C@H](N(C)C)[C@H]2O)[C@](C)(O)C[C@@H](C)CN(C)[C@H](C)[C@@H](O)[C@]1(C)O', 'µg/mL', 0.03),
  ('CC[C@H]1OC(=O)[C@H](C)[C@@H](OC(=O)NC2CC2)[C@H](C)[C@@H](O[C@@H]2O[C@H](C)C[C@H](N(C)C)[C@H]2O)[C@](C)(OC)C[C@@H](C)/C(=N/OCc2ccccc2Cl)[C@H](C)[C@@H](O)[C@]1(C)O', 'µg/mL', 1),
  ('CC[C@H]1OC(=O)[C@H](C)[C@@H](OC(=O)NCc2cccc(F)c2)[C@H](C)[C@@H](O[C@@H]2O[C@H](C)C[C@H](N(C)C)[C@H]2O)[C@](C)(OC)C[C@@H](C)/C(=N/OCc2ccccc2Cl)[C@H](C)[C@@H](O)[C@]1(C)O', 'µg/mL', 1),
  ('CC[C@H]1OC(=O)[C@H](C)[C@@H](OC(=O)NCc2ccc(Cl)cc2)[C@H](C)[C@@H](O[C@@H]2O[C@H](C)C[C@H](N(C)C)[C@H]2O)[C@](C)(OC)C[C@@H](C)/C(=N/OCc2ccccc2Cl)[C@H](C)[C@@H](O)[C@]1(C)O', 'µg/mL', 2),
  ('CC[C@H]1OC(=O)[C@H](C)[C@@H](OC(=O)NCc2ccccc2OC)[C@H](C)[C@@H](O[C@@H]2O[C@H](C)C[C@H](N(C)C)[C@H]2O)[C@](C)(OC)C[C@@H](C)/C(=N/OCc2ccccc2Cl)[C@H](C)[C@@H](O)[C@]1(C)O', 'µg/mL', 4);

###

Test system: Bacillus subtilis
ASSAY METHOD TEXT: Antibacterial activity against penicillin-susceptible Bacillus subtilis ATCC 9372 after 24 hrs by broth dilution assay
Format: functional
CONDITION LABEL: ATCC 9372, 24 h
MEASUREMENT KIND: MIC (µg/mL)

INSERT INTO assay_data (smiles_notation, measured_result) VALUES
  ('CC[C@H]1OC(=O)[C@H](C)[C@@H](OC(=O)NCc2ccc(Cl)cc2)[C@H](C)[C@@H](O[C@@H]2O[C@H](C)C[C@H](N(C)C)[C@H]2O)[C@](C)(OC)C[C@@H](C)/C(=N/OCc2ccccc2Cl)[C@H](C)[C@@H](O)[C@]1(C)O', 2),
  ('CC[C@H]1OC(=O)[C@H](C)[C@@H](OC(=O)NCCc2ccc(OC)cc2)[C@H](C)[C@@H](O[C@@H]2O[C@H](C)C[C@H](N(C)C)[C@H]2O)[C@](C)(OC)C[C@@H](C)/C(=N/OCc2ccccc2Cl)[C@H](C)[C@@H](O)[C@]1(C)O', 2),
  ('CC[C@H]1OC(=O)[C@H](C)[C@@H](OC(=O)NC2CCCCC2)[C@H](C)[C@@H](O[C@@H]2O[C@H](C)C[C@H](N(C)C)[C@H]2O)[C@](C)(OC)C[C@@H](C)/C(=N/OCc2ccccc2Cl)[C@H](C)[C@@H](O)[C@]1(C)O', 4),
  ('C#CCNC(=O)O[C@H]1[C@H](C)[C@@H](O[C@@H]2O[C@H](C)C[C@H](N(C)C)[C@H]2O)[C@](C)(OC)C[C@@H](C)/C(=N/OCc2ccccc2Cl)[C@H](C)[C@@H](O)[C@](C)(O)[C@@H](CC)OC(=O)[C@@H]1C', 2);

###

System: Streptococcus pneumoniae
ASSAY METHOD TEXT: Antibacterial activity against erythromycin-resistant Streptococcus pneumoniae A22072 expressing mefA gene after 24 hrs by broth dilution assay
Type: functional
CONDITION LABEL: A22072, 24 h
MEASUREMENT KIND: log10 of MIC (log10 of the value in mg/L)

INSERT INTO measurements (smiles_notation, assay_system, measurement_kind, measured_result) VALUES
  ('CC[C@H]1OC(=O)[C@H](C)[C@@H](OC(=O)NCc2ccc(Cl)cc2)[C@H](C)[C@@H](O[C@@H]2O[C@H](C)C[C@H](N(C)C)[C@H]2O)[C@](C)(OC)C[C@@H](C)/C(=N/OCc2ccccc2Cl)[C@H](C)[C@@H](O)[C@]1(C)O', 'Streptococcus pneumoniae', 'log10 of MIC', -0.30),
  ('CC[C@H]1OC(=O)[C@H](C)[C@@H](OC(=O)NCCc2ccc(O)cc2)[C@H](C)[C@@H](O[C@@H]2O[C@H](C)C[C@H](N(C)C)[C@H]2O)[C@](C)(OC)C[C@@H](C)/C(=N/OCc2ccccc2Cl)[C@H](C)[C@@H](O)[C@]1(C)O', 'Streptococcus pneumoniae', 'log10 of MIC', -0.60),
  ('CC[C@H]1OC(=O)[C@H](C)[C@@H](OC(=O)NCCc2ccc(OC)c(OC)c2)[C@H](C)[C@@H](O[C@@H]2O[C@H](C)C[C@H](N(C)C)[C@H]2O)[C@](C)(OC)C[C@@H](C)/C(=N/OCc2ccccc2Cl)[C@H](C)[C@@H](O)[C@]1(C)O', 'Streptococcus pneumoniae', 'log10 of MIC', 0.00),
  ('CC[C@H]1OC(=O)[C@H](C)[C@@H](OC(=O)NCC(C)C)[C@H](C)[C@@H](O[C@@H]2O[C@H](C)C[C@H](N(C)C)[C@H]2O)[C@](C)(OC)C[C@@H](C)/C(=N/OCc2ccccc2Cl)[C@H](C)[C@@H](O)[C@]1(C)O', 'Streptococcus pneumoniae', 'log10 of MIC', 0.00),
  ('CCCCNC(=O)O[C@H]1[C@H](C)[C@@H](O[C@@H]2O[C@H](C)C[C@H](N(C)C)[C@H]2O)[C@](C)(OC)C[C@@H](C)/C(=N/OCc2ccccc2Cl)[C@H](C)[C@@H](O)[C@](C)(O)[C@@H](CC)OC(=O)[C@@H]1C', 'Streptococcus pneumoniae', 'log10 of MIC', -0.30),
  ('CC[C@H]1OC(=O)[C@H](C)[C@@H](O[C@H]2C[C@@](C)(OC)[C@@H](O)[C@H](C)O2)[C@H](C)[C@@H](O[C@@H]2O[C@H](C)C[C@H](N(C)C)[C@H]2O)[C@](C)(O)C[C@@H](C)CN(C)[C@H](C)[C@@H](O)[C@]1(C)O', 'Streptococcus pneumoniae', 'log10 of MIC', 0.60),
  ('CC[C@H]1OC(=O)[C@H](C)[C@@H](OC(=O)NCCc2ccccc2)[C@H](C)[C@@H](O[C@@H]2O[C@H](C)C[C@H](N(C)C)[C@H]2O)[C@](C)(OC)C[C@@H](C)/C(=N/OCc2ccccc2Cl)[C@H](C)[C@@H](O)[C@]1(C)O', 'Streptococcus pneumoniae', 'log10 of MIC', 0.30),
  ('CC[C@H]1OC(=O)[C@H](C)[C@@H](OC(=O)NCCc2ccc(OC)cc2)[C@H](C)[C@@H](O[C@@H]2O[C@H](C)C[C@H](N(C)C)[C@H]2O)[C@](C)(OC)C[C@@H](C)/C(=N/OCc2ccccc2Cl)[C@H](C)[C@@H](O)[C@]1(C)O', 'Streptococcus pneumoniae', 'log10 of MIC', 0.00);

###

Tested on: Streptococcus pyogenes
ASSAY METHOD TEXT: Antibacterial activity against erythromycin-susceptible Streptococcus pyogenes 1 after 24 hrs by broth dilution assay
Assay type: functional
CONDITION LABEL: Streptococcus pyogenes, 1, 24 h
Items are presented alongside their recorded MIC.
MEASUREMENT KIND: MIC

INSERT INTO results (smiles_notation, measurement_kind, measured_result) VALUES
  ('CC[C@H]1OC(=O)[C@H](C)[C@@H](OC(=O)NCCc2cccc(OC)c2)[C@H](C)[C@@H](O[C@@H]2O[C@H](C)C[C@H](N(C)C)[C@H]2O)[C@](C)(OC)C[C@@H](C)/C(=N/OCc2ccccc2Cl)[C@H](C)[C@@H](O)[C@]1(C)O', 'MIC', '2 µg/mL'),
  ('CCCCCCNC(=O)O[C@H]1[C@H](C)[C@@H](O[C@@H]2O[C@H](C)C[C@H](N(C)C)[C@H]2O)[C@](C)(OC)C[C@@H](C)/C(=N/OCc2ccccc2Cl)[C@H](C)[C@@H](O)[C@](C)(O)[C@@H](CC)OC(=O)[C@@H]1C', 'MIC', '2 µg/mL'),
  ('C#CCNC(=O)O[C@H]1[C@H](C)[C@@H](O[C@@H]2O[C@H](C)C[C@H](N(C)C)[C@H]2O)[C@](C)(OC)C[C@@H](C)/C(=N/OCc2ccccc2Cl)[C@H](C)[C@@H](O)[C@](C)(O)[C@@H](CC)OC(=O)[C@@H]1C', 'MIC', '4 µg/mL'),
  ('CC[C@H]1OC(=O)[C@H](C)[C@@H](OC(=O)NCc2ccc(F)cc2)[C@H](C)[C@@H](O[C@@H]2O[C@H](C)C[C@H](N(C)C)[C@H]2O)[C@](C)(OC)C[C@@H](C)/C(=N/OCc2ccccc2Cl)[C@H](C)[C@@H](O)[C@]1(C)O', 'MIC', '2 µg/mL'),
  ('CC[C@H]1OC(=O)[C@H](C)[C@@H](OC(=O)NCCc2ccccc2Cl)[C@H](C)[C@@H](O[C@@H]2O[C@H](C)C[C@H](N(C)C)[C@H]2O)[C@](C)(OC)C[C@@H](C)/C(=N/OCc2ccccc2Cl)[C@H](C)[C@@H](O)[C@]1(C)O', 'MIC', '2 µg/mL'),
  ('CC[C@H]1OC(=O)[C@H](C)[C@@H](OC(=O)NCc2ccc(C)cc2)[C@H](C)[C@@H](O[C@@H]2O[C@H](C)C[C@H](N(C)C)[C@H]2O)[C@](C)(OC)C[C@@H](C)/C(=N/OCc2ccccc2Cl)[C@H](C)[C@@H](O)[C@]1(C)O', 'MIC', '2 µg/mL'),
  ('CC[C@H]1OC(=O)[C@H](C)[C@@H](OC(=O)NCCc2ccccc2)[C@H](C)[C@@H](O[C@@H]2O[C@H](C)C[C@H](N(C)C)[C@H]2O)[C@](C)(OC)C[C@@H](C)/C(=N/OCc2ccccc2Cl)[C@H](C)[C@@H](O)[C@]1(C)O', 'MIC', '8 µg/mL'),
  ('CCCCNC(=O)O[C@H]1[C@H](C)[C@@H](O[C@@H]2O[C@H](C)C[C@H](N(C)C)[C@H]2O)[C@](C)(OC)C[C@@H](C)/C(=N/OCc2ccccc2Cl)[C@H](C)[C@@H](O)[C@](C)(O)[C@@H](CC)OC(=O)[C@@H]1C', 'MIC', '1 µg/mL'),
  ('CC[C@H]1OC(=O)[C@H](C)[C@@H](OC(=O)NCc2ccc(N)cc2)[C@H](C)[C@@H](O[C@@H]2O[C@H](C)C[C@H](N(C)C)[C@H]2O)[C@](C)(OC)C[C@@H](C)/C(=N/OCc2ccccc2Cl)[C@H](C)[C@@H](O)[C@]1(C)O', 'MIC', '1 µg/mL'),
  ('CC[C@H]1OC(=O)[C@H](C)[C@@H](OC(=O)NCc2ccccc2Cl)[C@H](C)[C@@H](O[C@@H]2O[C@H](C)C[C@H](N(C)C)[C@H]2O)[C@](C)(OC)C[C@@H](C)/C(=N/OCc2ccccc2Cl)[C@H](C)[C@@H](O)[C@]1(C)O', 'MIC', '4 µg/mL'),
  ('CC[C@H]1OC(=O)[C@H](C)[C@@H](OC(=O)NC2CCCCC2)[C@H](C)[C@@H](O[C@@H]2O[C@H](C)C[C@H](N(C)C)[C@H]2O)[C@](C)(OC)C[C@@H](C)/C(=N/OCc2ccccc2Cl)[C@H](C)[C@@H](O)[C@]1(C)O', 'MIC', '2 µg/mL'),
  ('CC[C@H]1OC(=O)[C@H](C)[C@@H](OC(=O)NCc2ccc(OC)cc2)[C@H](C)[C@@H](O[C@@H]2O[C@H](C)C[C@H](N(C)C)[C@H]2O)[C@](C)(OC)C[C@@H](C)/C(=N/OCc2ccccc2Cl)[C@H](C)[C@@H](O)[C@]1(C)O', 'MIC', '4 µg/mL'),
  ('CCNC(=O)O[C@H]1[C@H](C)[C@@H](O[C@@H]2O[C@H](C)C[C@H](N(C)C)[C@H]2O)[C@](C)(OC)C[C@@H](C)/C(=N/OCc2ccccc2Cl)[C@H](C)[C@@H](O)[C@](C)(O)[C@@H](CC)OC(=O)[C@@H]1C', 'MIC', '2 µg/mL'),
  ('CC[C@H]1OC(=O)[C@H](C)[C@@H](OC(=O)NCCc2ccc(OC)cc2)[C@H](C)[C@@H](O[C@@H]2O[C@H](C)C[C@H](N(C)C)[C@H]2O)[C@](C)(OC)C[C@@H](C)/C(=N/OCc2ccccc2Cl)[C@H](C)[C@@H](O)[C@]1(C)O', 'MIC', '2 µg/mL'),
  ('CC[C@H]1OC(=O)[C@H](C)[C@@H](O)[C@H](C)[C@@H](O[C@@H]2O[C@H](C)C[C@H](N(C)C)[C@H]2O)[C@](C)(OC)C[C@@H](C)/C(=N/OCc2ccccc2Cl)[C@H](C)[C@@H](O)[C@]1(C)O', 'MIC', '4 µg/mL'),
  ('CC[C@H]1OC(=O)[C@H](C)[C@@H](OC(=O)NCc2ccccc2)[C@H](C)[C@@H](O[C@@H]2O[C@H](C)C[C@H](N(C)C)[C@H]2O)[C@](C)(OC)C[C@@H](C)/C(=N/OCc2ccccc2Cl)[C@H](C)[C@@H](O)[C@]1(C)O', 'MIC', '2 µg/mL');
